Target: mouse TMEM16A mutant I636A (Mus musculus, UniProt Q8BHY3, I636A)
Construct: expressed in transfected cells; host or cells: HEK293T
Experiment: Inside-out patch recording of 1PBC block, mutant I636A
Format: cell-based
Details: -120 mV; 15 µM Ca2+
quantity-kind: IC50 (µM)
Answer format: numeric, µM implied, no suffix.

-- ask Return IC50 for the following compound: N#Cc1c(C(F)(F)F)cc(O)n2c1nc1ccccc12 [1PBC]
-- reply 23.6

----------
Target: mouse TMEM16A mutant R535A (Mus musculus, UniProt Q8BHY3, R535A)
Construct: expressed in transfected cells; host or cells: HEK293T
Assay: Inside-out patch recording of 1PBC block, mutant R535A
Assay type: cell-based
Conditions: 40 mV; 2 µM Ca2+
quantity-kind: pIC50
Formally, pIC50 is defined as -log10 of the concentration c, with c in mol/L.

-- ask Return pIC50 for the following molecule: `N#Cc1c(C(F)(F)F)cc(O)n2c1nc1ccccc12`
-- reply 5.11

----------
Target: mouse TMEM16A mutant T539A (Mus musculus, UniProt Q8BHY3, T539A)
Construct: expressed in transfected cells; host or cells: HEK293T
Sequence (Q8BHY3 1-960 T539A): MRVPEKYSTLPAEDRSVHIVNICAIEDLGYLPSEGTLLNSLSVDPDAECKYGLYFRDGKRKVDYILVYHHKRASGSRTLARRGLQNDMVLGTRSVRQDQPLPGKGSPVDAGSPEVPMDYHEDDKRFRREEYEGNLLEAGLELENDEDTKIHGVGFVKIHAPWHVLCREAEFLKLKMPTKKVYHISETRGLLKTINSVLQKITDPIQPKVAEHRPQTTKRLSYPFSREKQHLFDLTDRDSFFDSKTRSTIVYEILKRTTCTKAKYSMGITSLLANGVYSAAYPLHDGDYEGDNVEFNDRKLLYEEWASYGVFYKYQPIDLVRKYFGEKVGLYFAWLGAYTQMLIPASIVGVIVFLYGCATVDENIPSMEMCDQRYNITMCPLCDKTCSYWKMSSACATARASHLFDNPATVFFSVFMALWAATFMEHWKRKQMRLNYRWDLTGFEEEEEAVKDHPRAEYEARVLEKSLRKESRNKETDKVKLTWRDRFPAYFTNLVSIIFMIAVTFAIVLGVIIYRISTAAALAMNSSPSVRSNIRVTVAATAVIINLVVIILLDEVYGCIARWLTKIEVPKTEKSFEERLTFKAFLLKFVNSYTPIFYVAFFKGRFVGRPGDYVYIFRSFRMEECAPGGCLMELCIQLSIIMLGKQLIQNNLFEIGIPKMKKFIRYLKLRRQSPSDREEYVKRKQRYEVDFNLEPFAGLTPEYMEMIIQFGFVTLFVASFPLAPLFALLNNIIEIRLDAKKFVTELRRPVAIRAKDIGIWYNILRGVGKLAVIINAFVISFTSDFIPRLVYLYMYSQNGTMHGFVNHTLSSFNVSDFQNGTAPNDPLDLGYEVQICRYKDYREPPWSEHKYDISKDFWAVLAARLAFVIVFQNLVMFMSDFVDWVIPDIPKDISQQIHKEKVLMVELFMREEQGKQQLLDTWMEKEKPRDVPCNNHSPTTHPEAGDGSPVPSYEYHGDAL
Test: Inside-out patch recording of 1PBC block, mutant T539A
Format: cell-based
Settings: T539A; V 40 mV
quantity-kind: pIC50
Formally, pIC50 is defined as -log10 of the concentration c, with c in mol/L.

-- ask Return pIC50 for the following compound: N#Cc1c(C(F)(F)F)cc(O)n2c1nc1ccccc12 [1PBC]
-- reply 4.96

----------
Target: mouse TMEM16A mutant V511A (Mus musculus, UniProt Q8BHY3, V511A)
Construct: expressed in transfected cells; host or cells: HEK293T
Sequence (Q8BHY3 1-960 V511A): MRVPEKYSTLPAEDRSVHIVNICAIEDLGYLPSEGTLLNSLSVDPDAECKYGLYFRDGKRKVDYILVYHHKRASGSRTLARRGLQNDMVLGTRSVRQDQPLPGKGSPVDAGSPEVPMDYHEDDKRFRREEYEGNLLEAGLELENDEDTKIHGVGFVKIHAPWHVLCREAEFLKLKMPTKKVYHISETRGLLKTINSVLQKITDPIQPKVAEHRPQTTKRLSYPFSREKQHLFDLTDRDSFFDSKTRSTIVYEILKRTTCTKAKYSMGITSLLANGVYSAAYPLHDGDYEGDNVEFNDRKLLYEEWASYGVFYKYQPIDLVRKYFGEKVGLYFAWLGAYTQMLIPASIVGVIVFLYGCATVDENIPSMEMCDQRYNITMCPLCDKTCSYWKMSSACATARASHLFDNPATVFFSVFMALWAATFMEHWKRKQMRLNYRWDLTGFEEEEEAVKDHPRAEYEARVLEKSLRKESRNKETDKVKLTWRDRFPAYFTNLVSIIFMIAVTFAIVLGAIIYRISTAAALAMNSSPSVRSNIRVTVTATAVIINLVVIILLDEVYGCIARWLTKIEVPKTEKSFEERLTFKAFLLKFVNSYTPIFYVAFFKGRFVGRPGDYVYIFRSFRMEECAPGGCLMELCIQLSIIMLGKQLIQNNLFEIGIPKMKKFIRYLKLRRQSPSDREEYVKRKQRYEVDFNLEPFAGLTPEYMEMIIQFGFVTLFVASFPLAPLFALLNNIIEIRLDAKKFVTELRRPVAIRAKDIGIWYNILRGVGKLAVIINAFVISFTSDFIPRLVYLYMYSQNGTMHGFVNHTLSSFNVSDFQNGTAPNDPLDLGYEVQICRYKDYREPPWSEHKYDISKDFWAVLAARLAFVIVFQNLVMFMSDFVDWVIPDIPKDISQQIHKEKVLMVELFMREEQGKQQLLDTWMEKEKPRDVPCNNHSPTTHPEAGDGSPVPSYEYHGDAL
Assay: Inside-out patch recording of 1PBC block, mutant V511A
Format: cell-based
Conditions: V511A; V -120 mV
quantity-kind: pIC50
Formally, pIC50 is defined as -log10 of the concentration c, with c in mol/L.

-- ask Look up mouse TMEM16A mutant V511A (Mus musculus, UniProt Q8BHY3, V511A) data: pIC50 of `N#Cc1c(C(F)(F)F)cc(O)n2c1nc1ccccc12` , then report it.
-- reply 4.14

----------
Molecular target: mouse TMEM16A mutant N546A (Mus musculus, UniProt Q8BHY3, N546A)
Construct: expressed in transfected cells; host or cells: HEK293T
Test: Inside-out patch recording of 1PBC block, mutant N546A
Assay type: cell-based
Conditions: N546A; V 60 mV
Experimental: HEK293T cells (ATCC CRL-1573) were maintained in Dulbecco’s modified Eagle’s medium (DMEM; Sigma-Aldrich) supplemented with 10 U ml^−1 penicillin, 0.1 mg ml^−1 streptomycin (Sigma-Aldrich), 2 mM L-glutamine (Sigma-Aldrich), and 10% FBS (Sigma-Aldrich) in a humidified atmosphere containing 5% CO2 at 37 °C. […]
quantity-kind: IC50 (nM)
Answer format: numeric, nM implied, no suffix.

-- ask Return IC50 for the following compound: `N#Cc1c(C(F)(F)F)cc(O)n2c1nc1ccccc12`
-- reply 269

----------
Biological target: mouse TMEM16A mutant G510P (Mus musculus, UniProt Q8BHY3, G510P)
Construct: expressed in transfected cells; host or cells: HEK293T
Assay: Inside-out patch recording of 1PBC block, mutant G510P
Format: cell-based
Conditions: G510P; V -20 mV
quantity-kind: pIC50
Formally, pIC50 is defined as -log10 of the concentration c, with c in mol/L.

-- ask Return pIC50 for the following compound: `N#Cc1c(C(F)(F)F)cc(O)n2c1nc1ccccc12`
-- reply 4.17

----------
Target: mouse TMEM16A mutant V511A (Mus musculus, UniProt Q8BHY3, V511A)
Construct: expressed in transfected cells; host or cells: HEK293T
Experiment: Inside-out patch recording of 1PBC block, mutant V511A
Type: cell-based
Details: V511A; V -100 mV
quantity-kind: pIC50
Formally, pIC50 is defined as -log10 of the concentration c, with c in mol/L.

-- ask Return pIC50 for the following compound: `N#Cc1c(C(F)(F)F)cc(O)n2c1nc1ccccc12`
-- reply 4.20

----------
Target: mouse TMEM16A mutant V511A (Mus musculus, UniProt Q8BHY3, V511A)
Construct: expressed in transfected cells; host or cells: HEK293T
Experiment: Inside-out patch recording of 1PBC block, mutant V511A
Format: cell-based
Conditions: -20 mV; 2 µM Ca2+
quantity-kind: IC50 (µM)
Answer format: numeric, µM implied, no suffix.

-- ask Look up mouse TMEM16A mutant V511A (Mus musculus, UniProt Q8BHY3, V511A) data: IC50 of `N#Cc1c(C(F)(F)F)cc(O)n2c1nc1ccccc12` , then report it.
-- reply 26.3

----------
Biological target: mouse TMEM16A mutant G510P (Mus musculus, UniProt Q8BHY3, G510P)
Construct: expressed in transfected cells; host or cells: HEK293T
Sequence (Q8BHY3 1-960 G510P): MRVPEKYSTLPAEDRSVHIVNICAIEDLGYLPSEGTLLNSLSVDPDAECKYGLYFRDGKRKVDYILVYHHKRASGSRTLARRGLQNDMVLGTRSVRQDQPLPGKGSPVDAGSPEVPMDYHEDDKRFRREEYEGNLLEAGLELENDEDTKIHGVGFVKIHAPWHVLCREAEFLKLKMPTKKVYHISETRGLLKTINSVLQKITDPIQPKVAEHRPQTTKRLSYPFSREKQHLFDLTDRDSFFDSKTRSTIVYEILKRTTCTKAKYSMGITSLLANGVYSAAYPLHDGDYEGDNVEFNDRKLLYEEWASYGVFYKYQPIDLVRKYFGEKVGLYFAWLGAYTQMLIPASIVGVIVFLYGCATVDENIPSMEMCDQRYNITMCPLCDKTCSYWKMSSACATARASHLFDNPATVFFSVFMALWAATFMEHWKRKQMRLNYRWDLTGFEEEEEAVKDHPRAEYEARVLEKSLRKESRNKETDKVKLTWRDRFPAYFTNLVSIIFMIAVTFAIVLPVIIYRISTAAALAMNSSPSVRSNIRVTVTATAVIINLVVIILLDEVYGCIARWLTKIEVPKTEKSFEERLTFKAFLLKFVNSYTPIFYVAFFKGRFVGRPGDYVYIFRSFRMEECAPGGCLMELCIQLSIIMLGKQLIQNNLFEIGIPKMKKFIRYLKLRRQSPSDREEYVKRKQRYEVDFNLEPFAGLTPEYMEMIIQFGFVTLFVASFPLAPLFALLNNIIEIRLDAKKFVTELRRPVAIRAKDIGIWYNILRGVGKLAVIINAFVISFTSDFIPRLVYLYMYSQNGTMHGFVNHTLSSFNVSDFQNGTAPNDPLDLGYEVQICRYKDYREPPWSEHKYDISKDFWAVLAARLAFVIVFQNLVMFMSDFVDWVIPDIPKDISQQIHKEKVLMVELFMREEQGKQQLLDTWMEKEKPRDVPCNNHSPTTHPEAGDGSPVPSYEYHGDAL
Experiment: Inside-out patch recording of 1PBC block, mutant G510P
Format: cell-based
Conditions: -80 mV; 15 µM Ca2+
quantity-kind: IC50 (µM)
Answer format: numeric, µM implied, no suffix.

-- ask Return IC50 for the following compound: `N#Cc1c(C(F)(F)F)cc(O)n2c1nc1ccccc12`
-- reply 83.4
